molecular target: human TLR9 (Homo sapiens (Human)); test: TLR9 inhibition reporter assay (HEK-Blue SEAP reporter, ODN2006 stimulation); settings: read-out: TLR9 IC50; HEK-Blue cells overexpressing human TLR9, ODN2006 5 nM, SEAP reporter;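 also: SEAP reporter under IFN-β minimal promoter with five NF-κB and AP-1 sites, 22 h incubation, compounds 0.05 nM–50 µM, inhibition relative to agonist plus DMSO versus known inhibitor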
Sequence (Q9NR96 26-1032): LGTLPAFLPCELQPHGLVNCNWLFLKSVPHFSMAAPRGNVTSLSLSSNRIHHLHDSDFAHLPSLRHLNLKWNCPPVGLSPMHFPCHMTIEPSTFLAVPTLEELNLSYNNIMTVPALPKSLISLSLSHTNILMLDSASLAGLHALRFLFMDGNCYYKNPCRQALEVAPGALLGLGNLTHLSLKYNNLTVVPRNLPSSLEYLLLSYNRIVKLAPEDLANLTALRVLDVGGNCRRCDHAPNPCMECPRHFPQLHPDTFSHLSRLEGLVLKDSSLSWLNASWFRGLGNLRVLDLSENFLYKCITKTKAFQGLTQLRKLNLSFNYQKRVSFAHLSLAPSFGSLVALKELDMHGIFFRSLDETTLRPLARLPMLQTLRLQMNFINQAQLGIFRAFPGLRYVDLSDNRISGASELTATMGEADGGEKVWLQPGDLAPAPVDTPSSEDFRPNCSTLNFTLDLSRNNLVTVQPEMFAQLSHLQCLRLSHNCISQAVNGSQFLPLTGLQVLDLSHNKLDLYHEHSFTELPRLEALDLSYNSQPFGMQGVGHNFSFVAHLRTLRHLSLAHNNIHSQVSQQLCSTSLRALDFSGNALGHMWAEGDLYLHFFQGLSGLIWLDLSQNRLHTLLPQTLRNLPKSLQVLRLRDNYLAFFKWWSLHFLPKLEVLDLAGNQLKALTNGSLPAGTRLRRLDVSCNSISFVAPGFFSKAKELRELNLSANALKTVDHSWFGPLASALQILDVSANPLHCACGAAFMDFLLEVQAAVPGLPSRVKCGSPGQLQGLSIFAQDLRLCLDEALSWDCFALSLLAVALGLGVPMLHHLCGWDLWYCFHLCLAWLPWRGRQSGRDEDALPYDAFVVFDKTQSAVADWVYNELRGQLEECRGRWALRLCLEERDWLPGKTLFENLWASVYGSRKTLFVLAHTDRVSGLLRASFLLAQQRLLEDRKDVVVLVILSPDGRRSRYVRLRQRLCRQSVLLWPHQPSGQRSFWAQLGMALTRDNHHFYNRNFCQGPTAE
pIC50: −log10 of the molar value.
Here, each record is paired with measured pIC50 data.

- compound: "CCN(CC)C(=O)C1CCCN(CC(=O)N2CC3CN(C(=O)c4ccc5[nH]c(-c6ccc(OC)c(OC)c6)c(C(C)C)c5c4)CC3C2)C1 (single isomer, unassigned) [Example 10]"
  pIC50: 5.12
- compound: "CCN(CCN(C)C)C(=O)c1ccc2[nH]c(-c3cc(C)nc(C)c3)c(CC(F)F)c2c1 [Example 125]"
  pIC50: 6.14
- compound: "Cc1cc(-c2[nH]c3ccc(C(C)(C)C(=O)NC[C@H]4CCNC4)cc3c2C(C)C)ccn1 [Example 160]"
  pIC50: 5.29
- compound: "Cc1cc(-c2[nH]c3ccc(C(=O)N4CC5CN(C)CC5C4)cc3c2C(C)C)ccn1 (stereo not shown) [Example 115]"
  pIC50: 5.80
- compound: "CNC(=O)CN1CC2CN(C(=O)c3ccc4[nH]c(-c5ccc(OC)c(OC)c5)c(C(C)C)c4c3)CC2C1 (stereo not shown) [Example 7]"
  pIC50: 5.40
- compound: "Cc1cc(-c2[nH]c3ccc(C(C)(C)C(=O)N[C@@H]4CCCNC4)cc3c2C(C)C)ccn1 [Example 140]"
  pIC50: 5.92
- compound: "Cc1cc(-c2[nH]c3ccc(C(C)(C)C(=O)N4CCCC5(CCCCC5N)C4)cc3c2C(C)C)ccn1 (stereo not shown) [Example 152]"
  pIC50: 5.58
